Entries and their measured EC50 follow.
- TESTED ON: T1, Human Siglec-7 (human, UniProt Q9Y286 19-467)
- T1 construct: Expressed on transfected CHO cells; also called huSiglec-7; CD328
- T1 sequence (Q9Y286 19-467): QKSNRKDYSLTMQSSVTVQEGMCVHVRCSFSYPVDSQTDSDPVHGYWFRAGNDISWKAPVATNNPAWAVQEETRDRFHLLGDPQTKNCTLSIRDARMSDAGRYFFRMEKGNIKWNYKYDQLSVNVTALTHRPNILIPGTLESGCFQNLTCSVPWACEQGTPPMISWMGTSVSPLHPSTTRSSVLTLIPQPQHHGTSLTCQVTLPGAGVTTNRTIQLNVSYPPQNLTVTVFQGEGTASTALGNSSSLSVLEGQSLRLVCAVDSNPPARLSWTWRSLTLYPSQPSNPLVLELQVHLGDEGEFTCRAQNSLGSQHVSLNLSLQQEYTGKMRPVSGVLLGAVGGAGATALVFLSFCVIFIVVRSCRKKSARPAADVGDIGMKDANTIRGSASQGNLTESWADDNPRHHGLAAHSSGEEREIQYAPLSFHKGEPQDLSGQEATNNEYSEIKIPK
- PROCEDURE DETAILS: flow cytometry, CHO transfectants

Consider the worked cases shown below.
BINDER: mAb1 (antibody, human IgG1, V domains shown) VH: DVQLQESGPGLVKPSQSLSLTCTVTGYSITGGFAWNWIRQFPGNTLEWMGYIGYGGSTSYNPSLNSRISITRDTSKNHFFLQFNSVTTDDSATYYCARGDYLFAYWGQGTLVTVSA VL: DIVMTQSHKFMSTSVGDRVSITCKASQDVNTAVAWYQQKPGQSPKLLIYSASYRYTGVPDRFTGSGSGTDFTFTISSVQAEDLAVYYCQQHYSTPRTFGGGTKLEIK
EC50: 0.21 µg/mL

BINDER: mAb4 (antibody, human IgG1, V domains shown) VH: DVQLVESGGDLVKPGGSLKLSCAASGFAFSSYDMSWVRQSPEKRLEWIAHIGSGGGNIYYPDTVKGRFTISRDNAKNTLYLQMRSLKSEDTAMYYCARLIFTTGFYGMDYWGQGTSVTVSS VL: DIQMTQTTSSLSASLGDRVTISCRASQDISSYLNWYQQKPDGTIKLLIYYTSRLHSGVPSRFSGSGSGTDYSLTISNLDQDDIATYFCQQGNALPWTFGGGTKLEIK
EC50: 0.17 µg/mL

Moving on to another binder below.
Tell me EC50 reported for mAb6 (antibody, human IgG1, V domains shown) VH: EIQLQQSGPELEKPGASVKISCKASGYSFSDYNMNWVKQSNGKSLEWIGNIDPYYGATSYNQRFKGKATLTVDKSSSTAYMQLKSLTSEDSAVYYCARGDSLFAYWGQGTLVTVSA VL: DIVMTQSQEFMSTSLGDRVSVTCKASQNVGTNVAWYQQKPGQSPKALLYSASSRYSGVPDRFTGSGSGTDFTLTINNMQSEDLAEYFCQQYITYPYTFGGGTKLEIK
0.33 µg/mL
